Test system: C2A
Test: qHTS profiling for inhibitors of Plasmodium falciparum proliferation (AID 504749); note: nearly all actives have a fitted effect of over 60% in size
Conditions: P. falciparum in erythrocytes, SYBR Green DNA, 72 h; series mostly up to 28.7 µM
Method: NIH National Institute of Allergy and Infectious Diseases [NIAID] NIH Chemical Genomics Center [NCGC] […] Because mature erythrocytes lack DNA, only Plasmodium-derived DNA is detected. NCGC Assay Protocol Summary: The SYBR Green viability assay was adapted from a method described previously (Plouffe et al., 2008). […] The following morning, fluorescence intensity at 485(14) nm excitation and 535(25) nm emission wavelengths was measured on an EnVision (Perkin Elmer) plate reader. […]
Results filed as inconclusive are left out. Activity calls are given as the source filed them. Calls come from the whole dose curve; as a rule, active = well fitted inhibition curve with a large enough effect; inconclusive = small, poorly fitted or top-dose-only effect; inactive = flat fitted curve, though single readings scatter.
readout.type: outcome

Field: example entries. Status: answers known.
Exercise: Specify measured outcome for "Cc1cnc(C(=O)O)cn1" .
Solution: inactive

Exercise: Return value of outcome for input COC(=O)C1C2CC3c4[nH]c5cc(OC)ccc5c4CCN3CC2CC(OC)C1OC (stereo not given) , no commentary.
Solution: inactive

Exercise: Determine its reported outcome: "CO/N=C(/C(=O)N[C@@H]1C(=O)N2C(C(=O)O)=C(CSc3nnnn3C)CS[C@H]12)c1csc(N)n1"
Solution: inactive

Exercise: Tell us which outcome value is on record for "COc1ccc(C(=O)/C(Br)=C/C(=O)O)cc1"
Solution: inactive

---
Exercise: Give the reported outcome for this compound. "C/C(=C(/CCOC(=O)C(C)C)SS/C(CCOC(=O)C(C)C)=C(\C)N(C=O)Cc1cnc(C)nc1N)N(C=O)Cc1cnc(C)nc1N"
Solution: inactive

Exercise: Give the measured outcome for "CCCC[C@H]1C(=O)N(c2ccccc2)N(c2ccc(O)cc2)C1=O"
Solution: inactive

Exercise: Write down outcome measured for item "CO/N=C(/C(=O)N[C@@H]1C(=O)N2C(C(=O)O)=C(CSc3nc(C)c(CC(=O)O)s3)CS[C@H]12)c1csc(N)n1"
Solution: inactive

Exercise: Dear colleague, please send me the reported outcome for "COc1ccc(S(=O)(=O)N2c3ccc(Cl)cc3[C@](O)(c3ccccc3Cl)[C@@H]2C(=O)N2CCC[C@H]2C(N)=O)cc1OC" when you can.
Solution: inactive

Exercise: For the compound NC(C(=O)O)c1ccc(O)cc1 (stereo not given) , report outcome.
Solution: inactive

Exercise: Note outcome for the compound shown: "O=C1[C@@H]2C[C@@H]3C[C@H]1C[C@@](O)(C3)C2"
Solution: inactive

* * *

System: CP305
Experiment: qHTS profiling for inhibitors of Plasmodium falciparum proliferation (AID 504749); note: nearly all actives have a fitted effect of over 60% in size
Conditions: P. falciparum in erythrocytes, SYBR Green DNA, 72 h; series mostly up to 28.7 µM
Inconclusive results are not listed. Activity calls are given as the source filed them. The call rests on the fitted dose curve; in most records, active means well fitted inhibition curve with a large enough effect; inconclusive means small, poorly fitted or top-dose-only effect; inactive means flat fitted curve, though single readings scatter.
Select the matching outcome among Yes for active, No for inactive

Exercise: Kindly provide the recorded test outcome for the following molecule: "CN(C)CC/C=C1\c2ccccc2COc2ccc(CC(=O)O)cc21"
Solution: No

Exercise: Status in this test for "O=C(OC[C@@H]1O[C@@](O)(COC(=O)c2cccnc2)[C@H](OC(=O)c2cccnc2)[C@H]1OC(=O)c1cccnc1)c1cccnc1" ?
Solution: No

Exercise: Outcome logged for "O=C(O)c1ccc(N[C@@H]2OC[C@@H](O)[C@@H](O)[C@@H]2O)cc1" in this assay:
Solution: No

Exercise: Short answer needed: outcome of this test for CCCCCCCCCCCC(=O)OCC(O)C1OCC(O)C1O (configuration not stated) ?
Solution: No

Exercise: # outcome recorded in this test, key = C=C[C@@]1(C)C[C@H](OC(=O)CSC(C)(C)CNC(=O)[C@@H](N)C(C)C)[C@@]2(C)C(C)CC[C@@]3(CCC(=O)[C@@H]32)[C@H](C)[C@H]1O (some centres not stated)
Solution: Yes

Exercise: Please state the recorded outcome for this molecule: COc1ccc2cc1Oc1cc3c(cc1OC)CC[N+](C)(C)C3Cc1ccc(cc1)Oc1c(OC)c(OC)cc3c1C(C2)[N+](C)(C)CC3 (configuration not stated)
Solution: No

Exercise: I would be grateful if you could indicate the recorded call for "CC[C@@H]1/C=C(\C)C[C@H](C)C[C@H](OC)[C@H]2O[C@@](O)(C(=O)C(=O)N3CCCC[C@H]3C(=O)O[C@H](/C(C)=C/[C@@H]3CC[C@H](Cl)[C@H](OC)C3)[C@H](C)[C@@H](O)CC1=O)[C@H](C)C[C@@H]2OC" .
Solution: No

Exercise: Write down the call the test reported for this molecule. Item: "CO/N=C(/C(=O)N[C@@H]1C(=O)N2C(C(=O)O)=C(C[n+]3ccc(N)n3CCO)CS[C@H]12)c1csc(N)n1"
Solution: No

Exercise: Assay outcome for Cc1ccc(S(=O)(=O)NC(=O)NC(C)Cc2ccccc2)cc1 (configuration not stated) : what was it?
Solution: No

Exercise: Which outcome was entered for the molecule "C=C1C(=O)O[C@@H]2[C@@H]1CC/C(C)=C\CC[C@@]1(C)O[C@H]21" in this test?
Solution: No

Exercise: Check the results log: what was the call for N#C/C(=C1/SCC(c2ccccc2Cl)S1)n1ccnc1 (configuration not stated) ?
Solution: No

Exercise: For "CC1=C(c2ccc(NN=C(C#N)C#N)cc2)NNC(=O)C1" , which call appears in the assay record?
Solution: No

Exercise: Could you kindly confirm the outcome this assay logged for OCC(CO)NC1C[C@](O)(CO)[C@@H](O)[C@H](O)[C@H]1O (some centres not stated) ?
Solution: No

Exercise: Short answer needed: outcome of this test for CC[C@@]1(O)CC2CN(CCc3c([nH]c4ccccc34)[C@](C(=O)OC)(c3cc4c(cc3OC)N(C)C3[C@@](O)(C(=O)OC)C(OC(C)=O)[C@]5(CC)C=CCN6CC[C@@]43C65)C2)C1 (some centres not stated) ?
Solution: Yes

Exercise: Kindly provide the recorded test outcome for the following molecule: CC1OC(OCC2OC(Oc3c(-c4ccc(OCCO)c(OCCO)c4)oc4cc(OCCO)cc(O)c4c3=O)C(O)C(O)C2O)[C@@H](O)C(O)C1O (some centres not stated)
Solution: No

Exercise: In this assay, the call recorded for "COc1ccc(S(=O)(=O)N2c3ccc(Cl)cc3[C@](O)(c3ccccc3Cl)[C@@H]2C(=O)N2CCC[C@H]2C(N)=O)cc1OC" was what?
Solution: No

Exercise: Per the records of this test, what outcome belongs to CCC(C(=O)O)C1OC(C(C)C(O)C(C)C(=O)C(CC)C2OC3(C=CC(O)C4(CCC(C)(C5CCC(O)(CC)C(C)O5)O4)O3)C(C)CC2C)C(C)CC1C (configuration not stated) ?
Solution: Yes

Exercise: How was "CC1(C)OC[C@@H]2O[C@@]3(C(=O)O)OC(C)(C)O[C@@H]3[C@@H]2O1" classified in this test?
Solution: No

Exercise: Hi, sorry to bother you, what did the test record for CC1OC(OC2CCC3(C)C(CCC4C3CC(O)C3(C)C(C5=CC(=O)OC5)CCC43O)C2)CC(O)C1OC1CC(O)C(OC2CC(O)C(OC3OC(CO)C(O)C(O)C3O)C(C)O2)C(C)O1 (configuration not stated) ?
Solution: No

Exercise: So what was the verdict on CCCCC(=O)OCC(=O)[C@]1(O)Cc2c(O)c3c(c(O)c2[C@H](OC2CC(NC(=O)C(F)(F)F)C(O)C(C)O2)C1)C(=O)c1c(OC)cccc1C3=O (some centres not stated) in this test?
Solution: Yes

Exercise: Per the assay record, what outcome was assigned to CC(=O)OCC(=O)[C@@]1(O)CCC2C3C[C@H](C)C4=CC(=O)C=CC4(C)C3C(O)CC21C (some centres not stated) ?
Solution: No

Exercise: Recorded test call requested for "CC1(C)C2CC[C@]1(C)[C@@H](O)C2"
Solution: No

Exercise: # outcome recorded in this test, key = "CC(C)(C)NC[C@H](O)CSc1nc(-c2ccc(C(N)=O)s2)cs1"
Solution: No

Exercise: Just curious, what result did NC(=O)C1CC2(NC(=O)NC2=O)c2cc(F)ccc2O1 (configuration not stated) get here?
Solution: No

Exercise: Any idea what this test logged for "CCCCC/C(C=O)=C/c1ccccc1" ?
Solution: No

Exercise: Recorded test outcome, item "CCCC[C@H]1C(=O)N(c2ccccc2)N(c2ccc(O)cc2)C1=O"
Solution: No

Exercise: For this molecule, state the assay outcome: "C=C(NCc1ccccc1)c1ccccc1O"
Solution: No

Exercise: Field: outcome | Entry: C[C@H]1[C@@H](OC(=O)CCC(=O)O)OC2OC3(C)CC[C@H]4[C@H](C)CC[C@@H]1[C@@]24OO3 (some centres not stated)
Solution: Yes

Exercise: # fetch the recorded call for "OC[C@@H]1O[C@](CO)(O[C@H]2O[C@H](CO)[C@@H](O)[C@H](O)[C@H]2O)[C@H](O)[C@H]1O" here
Solution: No

Exercise: Returns: the outcome recorded for "CC[C@]1([C@H]2O[C@@H]([C@@H]3O[C@](O)(CO)[C@@H](C)C[C@H]3C)C[C@H]2C)CC[C@@H]([C@]2(C)CC[C@@]3(C[C@@H](O)[C@@H](C)[C@@H]([C@H](C)[C@H](OC)[C@H](C)C(=O)O)O3)O2)O1" in this assay.
Solution: Yes

Exercise: Short answer needed: outcome of this test for "Oc1cc2cc(CCN3CCN(c4nsc5ccccc45)CC3)c(Cl)cc2[nH]1" ?
Solution: No

Exercise: Which outcome was entered for the molecule C=CCn1c(=O)n(C2OC(CO)C(O)C2O)c2nc(N)[nH]c(=O)c21 (configuration not stated) in this test?
Solution: No

The reported numbers originate from PubChem BioAssay (NCATS).
